Reference source for all entries: patent US12662451B2

Target: recombinant full-length WRN protein (1-1432) (Homo sapiens, UniProt Q14191)
Construct: recombinant full-length WRN protein (1-1432)
Sequence (Q14191 whole entry): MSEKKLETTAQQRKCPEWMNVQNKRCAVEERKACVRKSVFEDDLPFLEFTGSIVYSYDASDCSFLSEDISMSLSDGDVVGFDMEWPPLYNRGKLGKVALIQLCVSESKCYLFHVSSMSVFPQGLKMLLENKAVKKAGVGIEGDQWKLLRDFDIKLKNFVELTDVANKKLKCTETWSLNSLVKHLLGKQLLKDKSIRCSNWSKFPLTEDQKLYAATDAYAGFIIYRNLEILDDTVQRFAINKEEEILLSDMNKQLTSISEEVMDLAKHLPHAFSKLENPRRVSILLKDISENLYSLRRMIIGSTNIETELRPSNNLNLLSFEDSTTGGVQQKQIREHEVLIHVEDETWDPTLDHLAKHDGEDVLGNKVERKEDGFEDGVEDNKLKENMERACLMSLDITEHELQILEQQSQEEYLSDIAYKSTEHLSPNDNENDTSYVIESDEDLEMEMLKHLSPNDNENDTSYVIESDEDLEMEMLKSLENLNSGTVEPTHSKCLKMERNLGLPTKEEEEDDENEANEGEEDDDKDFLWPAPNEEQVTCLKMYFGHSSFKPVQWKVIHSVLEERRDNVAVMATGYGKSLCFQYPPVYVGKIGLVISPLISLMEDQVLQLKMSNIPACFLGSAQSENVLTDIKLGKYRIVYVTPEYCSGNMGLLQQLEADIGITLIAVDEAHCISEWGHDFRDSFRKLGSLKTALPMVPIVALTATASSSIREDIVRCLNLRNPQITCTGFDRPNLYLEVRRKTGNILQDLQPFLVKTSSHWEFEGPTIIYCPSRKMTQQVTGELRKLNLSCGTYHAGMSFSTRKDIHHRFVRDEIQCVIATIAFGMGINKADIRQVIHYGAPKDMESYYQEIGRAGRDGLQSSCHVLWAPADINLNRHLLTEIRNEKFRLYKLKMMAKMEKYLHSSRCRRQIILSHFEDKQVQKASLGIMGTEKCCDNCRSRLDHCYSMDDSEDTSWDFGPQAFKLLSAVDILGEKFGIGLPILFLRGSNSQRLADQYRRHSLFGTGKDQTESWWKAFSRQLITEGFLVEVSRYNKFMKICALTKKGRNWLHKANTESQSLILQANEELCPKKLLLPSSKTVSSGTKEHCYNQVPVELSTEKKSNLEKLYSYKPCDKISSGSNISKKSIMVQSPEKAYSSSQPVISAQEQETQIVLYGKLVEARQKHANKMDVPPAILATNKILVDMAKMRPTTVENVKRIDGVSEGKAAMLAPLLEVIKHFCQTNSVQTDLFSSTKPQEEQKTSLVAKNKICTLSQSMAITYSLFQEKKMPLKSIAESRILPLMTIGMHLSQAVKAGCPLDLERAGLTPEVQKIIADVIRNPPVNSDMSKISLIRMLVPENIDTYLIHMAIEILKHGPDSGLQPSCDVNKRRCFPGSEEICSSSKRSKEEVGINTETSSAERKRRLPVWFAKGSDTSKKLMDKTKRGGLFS
Test: WRN unwinding activity, fluorogenic 384-well assay (Example A)
Format: biochemical
Settings: WRN unwinding activity, 4 hr; Table 2; read-out: 4 hr UNW pIC50 (converted)
Structures can show the parent of a compound that is named as a salt.
measure name: IC50 (nM)

Study these solved cases before continuing.
| molecule | readout number |
| --- | --- |
| CCO[C@H]1C[C@@H](COc2ccc(C(F)(F)F)cc2)[C@H](C(=O)O)[C@@H](c2ccc(N(C)S(=O)(=O)c3ccc4c(c3)nc(C)n4C)cc2)C1 (single isomer, unassigned) | 3.98 |
| CCO[C@@H]1C[C@H](c2ccc(N(C)S(=O)(=O)c3ccc4[nH]c(C)nc4c3)cc2)[C@@H](C(=O)O)[C@H](C(=O)Nc2ccc(C(F)(F)F)cc2F)C1 | 1.58 |
| Cc1nc2cc(S(=O)(=O)N(C)c3ccc([C@H]4C[C@@H]5COC[C@@H]5[C@@H](C(=O)Nc5ccc(C(F)(F)F)cc5F)[C@@H]4C(=O)O)cc3)ccc2n1C (stereo in doubt) | 251 |
| Cc1nc2cc(S(=O)(=O)N(C)c3ccc([C@H]4CCC[C@@H](C(=O)NC56CC(C7CCCC7)(C5)C6)[C@@H]4C(=O)O)cc3)ccc2n1C [Example 187, formic acid salt] | 6.31 |

[I] Cc1nc2cc(S(=O)(=O)N(C)c3ccc([C@@H]4CC[C@H](C)[C@H](C(=O)Nc5ccc(C(F)(F)F)cc5F)[C@H]4C(=O)O)cc3)ccc2n1C (single isomer, unassigned)
[II] Cc1nc2cc(S(=O)(=O)N(C)c3ccc([C@H]4CCC[C@@H](C(=O)N[C@H]5CC[C@H](C(C)(C)O)CC5)[C@@H]4C(=O)O)cc3)ccc2n1C
[III] Cc1nc2cc(S(=O)(=O)N(C)c3ccc([C@@H]4C[C@H](N5CCC(F)(F)C5)C[C@H](C(=O)Nc5ccc(C(F)(F)F)cc5F)[C@H]4C(=O)O)cc3)ccc2n1C
Falling order of IC50, please. Would you mind listing the labels in the order asked for?
I, III, II

###

List of CC50 values.
Test system: SW48 human colorectal cancer cells (MSI-H cancer cells)
Assay: SW48 cell viability, CellTiter-Glo, 120 hours (Example B)
Settings: Homo sapiens, SW48, 120 h, read-out: SW48 pCC50, SW48 cell viability, 120 hours incubation (converted); Table 2
Report only the number, with the unit µM understood.

Study these solved cases before continuing.
| compound | CC50 (µM) |
| --- | --- |
| Cc1nc2cc(S(=O)(=O)N(C)c3ccc([C@@H]4CCC[C@H](C(=O)Nc5ccc(C(F)(F)F)cc5F)[C@H]4C(=O)O)cc3C#N)ccc2n1C (single isomer, unassigned) | 3.16 |
| CCO[C@@H]1C[C@H](c2ccc(N(C)S(=O)(=O)c3ccc4c(c3)nc(Cl)n4C)cc2)[C@@H](C(=O)O)[C@H](C(=O)Nc2ccc(C(F)(F)F)cc2F)C1 (relative stereo) | 0.501 |
| CC(=O)N(C)[C@H]1C[C@H](c2ccc(N(C)S(=O)(=O)c3ccc4c(c3)nc(C)n4C)cc2)[C@@H](C(=O)O)[C@H](C(=O)Nc2ccc(C(F)(F)F)cc2F)C1 (stereo in doubt) | 6.31 |
| [2H]C([2H])([2H])O[C@@H]1C[C@H](C(=O)Nc2ccc(C(F)(F)F)cc2F)[C@@H](C(=O)O)[C@H](c2ccc(N(C)S(=O)(=O)c3ccc4c(c3)nc(C)n4C)cc2)C1 (relative stereo) | 0.2 |
| CN(c1ccc([C@H]2CCC[C@@H](C(=O)Nc3ccc(C(F)(F)F)cc3F)[C@@H]2C(=O)O)cc1)S(=O)(=O)c1ccc2c(c1)nc(C1CC1)n2C | 0.501 |
| Cc1nc2cc(S(=O)(=O)N(C)c3ccc([C@H]4CCC[C@@H](C(=O)Nc5ccc(C(F)(F)F)cc5F)[C@@H]4C(=O)O)cc3)ncc2n1C | 1.58 |
| CCN(c1ccc([C@H]2CCC[C@@H](C(=O)Nc3ccc(C(F)(F)F)cc3F)[C@@H]2C(=O)O)cc1)S(=O)(=O)c1ccc2c(c1)nc(C)n2C | 5.01 |
| CN(c1ccc([C@H]2CCC[C@@H](C(=O)Nc3ccc(C(F)(F)F)cc3F)[C@@H]2C(=O)O)cc1)S(=O)(=O)c1cccc([C@H]2CCCNC2)c1 | 0.2 |
| Cc1nc2cc(S(=O)(=O)N(C)c3ccc([C@@H]4C[C@H](C#N)C[C@H](C(=O)Nc5ccc(C(F)(F)F)cc5F)[C@H]4C(=O)O)cc3)ccc2n1C (single isomer, unassigned) | 12.6 |

# get_value(readout='CC50', item= Cc1nc2cc(S(=O)(=O)N(C)c3ccc([C@H]4C[C@@H](OC5CCC5)C[C@@H](C(=O)Nc5ccc(C(F)(F)F)cc5F)[C@@H]4C(=O)O)cc3)ccc2n1C (stereo in doubt) )
0.2

###

Target: recombinant full-length WRN protein (1-1432) (Homo sapiens, UniProt Q14191)
Construct: recombinant full-length WRN protein (1-1432)
Experiment: WRN unwinding activity, fluorogenic 384-well assay (Example A)
Format: biochemical
Conditions: WRN unwinding activity, 4 hr; Table 2; read-out: 4 hr UNW pIC50 (converted)
measure name: IC50 (nM)

[A] CO[C@@H]1C[C@H](C(=O)Nc2ccc(C(F)(F)F)cc2F)[C@@H](C(=O)O)[C@H](c2ccc(N(C)S(=O)(=O)c3ccc4c(c3)nc(C)n4C)cc2)C1 (relative stereo)
[B] CC(=O)N[C@@H]1C[C@@H](COc2ccc(C(F)(F)F)cc2)[C@H](C(=O)O)[C@@H](c2ccc(N(C)S(=O)(=O)c3ccc4c(c3)nc(C)n4C)cc2)C1 (single isomer, unassigned)
[C] Cc1nnc(-c2ccc([C@H]3CCC[C@@H](C(=O)Nc4ccc(C(F)(F)F)cc4F)[C@@H]3C(=O)O)cc2)s1
Rank items: key IC50, increasing. Would you mind listing the labels in the order asked for?
A, C, B
(A: 1.26 nM, C: 5.01 nM, B: 501 nM)

###

Test system: SW48 human colorectal cancer cells (MSI-H cancer cells)
Test: SW48 cell viability, CellTiter-Glo, 120 hours (Example B)
Details: measured potency from Example B, as repeated in Table 3
measure name: SW48 pCC50
Output spec: single numeric token, no unit.

Study these solved cases before continuing.
| molecule | measure name | readout number |
| --- | --- | --- |
| Cc1nc2cc(S(=O)(=O)N(C)c3ccc([C@H]4C[C@@H](N5CCOCC5)C[C@@H](C(=O)Nc5ccc(C(F)(F)F)cc5F)[C@@H]4C(=O)O)cc3)ccc2n1C (single isomer, unassigned) [Example 337] | SW48 pCC50 | 6.8 |
| Cc1nc2cc(S(=O)(=O)N(C)c3ccc([C@H]4C[C@@H]5OCC[C@@H]5[C@@H](C(=O)Nc5ccc(C(F)(F)F)cc5F)[C@@H]4C(=O)O)cc3)ccc2n1C (single isomer, unassigned) [Example 157] | SW48 pCC50 | 6.9 |
| Cc1nc2cc(S(=O)(=O)N(C)c3ccc([C@H]4C[C@@H](N5CCC[C@@H](F)C5)C[C@@H](C(=O)Nc5ccc(C(F)(F)F)cc5F)[C@@H]4C(=O)O)cc3)ccc2n1C (single isomer, unassigned) [Example 347] | SW48 pCC50 | 5.2 |

Given the entry Cc1nc2cc(S(=O)(=O)N(C)c3ccc([C@@H]4C[C@@H]5COC[C@@H]5[C@@H](C(=O)Nc5ccc(C(F)(F)F)cc5F)[C@@H]4C(=O)O)cc3)ccc2n1C (single isomer, unassigned) [Example 390] , what SW48 pCC50 was observed with SW48 human colorectal cancer cells (MSI-H cancer cells)?
5.7

Given the entry Cc1nc2cc(S(=O)(=O)N(C)c3ccc([C@H]4C[C@@H](O[C@H]5CCOC5)C[C@@H](C(=O)Nc5ccc(C(F)(F)F)cc5F)[C@@H]4C(=O)O)cc3)ccc2n1C (stereo in doubt) [Example 324] , what SW48 pCC50 was observed with SW48 human colorectal cancer cells (MSI-H cancer cells)?
5.1

Given the entry Cc1nc2cc(S(=O)(=O)N(C)c3ccc([C@H]4CCC[C@@H](C(=O)Nc5ccc(C(F)(F)F)cc5F)[C@@H]4C(=O)O)cc3)cc(C3CCCN(C)C3)c2n1C (relative stereo) [Example 270] , what SW48 pCC50 was observed with SW48 human colorectal cancer cells (MSI-H cancer cells)?
6.5

Given the entry CN(c1ccc([C@H]2CCC[C@@H](C(=O)Nc3ccc(C(F)(F)F)cc3F)[C@@H]2C(=O)O)cc1)S(=O)(=O)c1cc(I)c2occc2c1 [Example 117] , what SW48 pCC50 was observed with SW48 human colorectal cancer cells (MSI-H cancer cells)?
5.4

Given the entry Cc1nc2cc(S(=O)(=O)N(C)c3ccc([C@H]4C[C@@H](N5CCOCC5)C[C@@H](C(=O)Nc5ccc(C(F)(F)F)cc5F)[C@@H]4C(=O)O)cc3)ccc2n1C (single isomer, unassigned) [Example 340] , what SW48 pCC50 was observed with SW48 human colorectal cancer cells (MSI-H cancer cells)?
5.1
